Biological target: hERG current (Homo sapiens)
Sequence (Q12809 whole entry): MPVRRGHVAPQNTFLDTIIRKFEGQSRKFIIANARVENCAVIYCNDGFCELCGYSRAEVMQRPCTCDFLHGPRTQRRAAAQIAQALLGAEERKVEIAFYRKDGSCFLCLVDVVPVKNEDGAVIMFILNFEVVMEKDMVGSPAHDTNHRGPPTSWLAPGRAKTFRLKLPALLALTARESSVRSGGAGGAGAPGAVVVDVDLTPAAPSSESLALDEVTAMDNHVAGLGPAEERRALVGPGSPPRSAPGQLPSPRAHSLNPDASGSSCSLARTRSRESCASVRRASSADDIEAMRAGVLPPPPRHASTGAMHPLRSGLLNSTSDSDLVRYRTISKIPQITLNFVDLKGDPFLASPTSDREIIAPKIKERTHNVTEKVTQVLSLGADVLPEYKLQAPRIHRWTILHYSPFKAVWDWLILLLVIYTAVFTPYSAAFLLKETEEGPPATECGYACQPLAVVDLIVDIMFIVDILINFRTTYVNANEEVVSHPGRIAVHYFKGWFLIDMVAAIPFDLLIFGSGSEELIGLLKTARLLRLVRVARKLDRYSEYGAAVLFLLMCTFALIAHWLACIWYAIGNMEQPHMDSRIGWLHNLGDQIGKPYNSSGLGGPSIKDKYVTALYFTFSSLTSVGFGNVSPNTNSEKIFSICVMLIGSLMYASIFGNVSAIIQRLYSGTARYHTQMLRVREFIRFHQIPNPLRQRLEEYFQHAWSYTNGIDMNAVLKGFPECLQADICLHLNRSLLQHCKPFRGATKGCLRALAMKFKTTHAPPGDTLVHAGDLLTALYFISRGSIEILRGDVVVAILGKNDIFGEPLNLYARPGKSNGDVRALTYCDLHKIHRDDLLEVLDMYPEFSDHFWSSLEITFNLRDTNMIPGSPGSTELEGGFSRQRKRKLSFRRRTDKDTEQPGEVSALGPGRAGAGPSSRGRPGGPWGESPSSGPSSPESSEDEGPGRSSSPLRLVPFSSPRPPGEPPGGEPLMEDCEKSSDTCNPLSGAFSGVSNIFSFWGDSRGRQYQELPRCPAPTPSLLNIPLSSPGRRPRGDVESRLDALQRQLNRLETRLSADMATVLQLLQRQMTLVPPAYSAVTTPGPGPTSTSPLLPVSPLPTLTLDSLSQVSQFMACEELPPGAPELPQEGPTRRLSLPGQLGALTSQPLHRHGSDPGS
Assay: hERG current, PatchXpress 7000A automatic parallel patch clamp in hERG-transfected HEK 293 cells (Example 6)
Conditions: 0.01 μM
Give 1 when the value for Mean % hERG Inhibition is at least 2%. Give 0 when it is less.

Tell me whether Mean % hERG Inhibition is at least 2% here: O=C(NO)N1CCSc2ccccc2C1 [S74]
0

Please tell me: is the compound O=C(O)C(=O)N1CCSc2ccccc2C1 [S77] at or over 2% in terms of Mean % hERG Inhibition?
0

Determine whether this compound has Mean % hERG Inhibition no lower than 2%: COc1ccc2c(c1)CN(C(=O)N1CCN(Cc3ccc4c(c3)OCO4)CC1)CCS2 [S47]
1

Identify whether the reported Mean % hERG Inhibition of the following compound is 2% or greater: COc1ccc2c(c1)CN(C(=O)C(=O)[O-])CCS2.[Na+] [ARM036-Na]
0

Test whether the compound COc1ccc2c(c1)CN(C(=O)C(=O)O)CCS2(=O)=O [S104] records Mean % hERG Inhibition of 2% or higher.
0

Hi, just wondering whether O=C(N1CCCCC1)N1CCSc2ccccc2C1 [S102] shows Mean % hERG Inhibition of 2% or higher.
1

Entry COC(=O)C(=O)N1CCSc2ccc(OC)cc2C1 [S57] : is its Mean % hERG Inhibition no less than 2%?
0

Hi team, for COc1ccc2c(c1)CN(C)CCS2 [S107] , is the recorded Mean % hERG Inhibition at or above 2%?
1

Could you tell me if the measured Mean % hERG Inhibition of COc1ccc2c(c1)CN(C(=O)N1CCCCC1)CCS2 [S50] reaches 2% or more?
0
